# Target under test: human GLP-1 receptor (human, UniProt P43220 24-463)
# Test protocol: cell-based or functional assay
Starred links: 1 amine or outer side, 2 acyl side, 3 side chain; linkers in the order of their positions; H or OH if unused. Non-standard residues stand in square brackets, D forms with d. Groups on a side chain read outwards from the residue. No end group written: not given here. *: point of attachment. C20 diacid = O=C(O)CCCCCCCCCCCCCCCCCCC(=O)*; C18 diacid = O=C(O)CCCCCCCCCCCCCCCCC(=O)*; γGlu = O=C(O)[C@H](CCC(=O)[*:2])N[*:1]; εLys = N[C@@H](CCCCN[*:1])C(=O)[*:2]; AEEA = NCCOCCOCC(=O)O; Aib = CC(C)(N)C(=O)O
Values of EC50 hGLP1R 100% hP (CreLuc) strictly less than 6 nM map to 1, and values of at least 6 nM map to -1.

# Binder, Class assignment
measured = [
    ("Y[Aib]EGTFTSDYSI[Aib]LEKQAQ[Aib]EFVEWLIK([AEEA-AEEA-γGlu-γGlu-γGlu-C20 diacid])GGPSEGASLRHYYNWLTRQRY-NH2 (also: TFA salt) [Compound 273]", -1),
    ("Y[Aib]EGTFTSDYSI[Aib]LEKQAQ[Aib]AFVQWLIK([Glu-Glu-Glu-Glu-Glu-Glu-C18 diacid])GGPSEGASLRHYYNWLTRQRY-NH2 (also: TFA salt) [Compound 264]", 1),
]

Hello, I'm reviewing records and need to know if EC50 hGLP1R 100% hP (CreLuc) of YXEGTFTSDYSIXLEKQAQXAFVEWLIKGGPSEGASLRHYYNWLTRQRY (Aib at 2, 13, 20; K28 side chain acylated with C20DA-gGlu-gGlu-gGlu-gGlu-gGlu-AHX; C-terminal amide (NH2)) [Compound 301] is below 6 nM. Could you check?
-1

Lab note: EC50 hGLP1R 100% hP (CreLuc) threshold 6 nM. Does this binder come in strictly under it? Y[Aib]EGTFTSDYSI[Aib]LEKQAQ[Aib]AFVEWLIK([AEEA-AEEA-γGlu-γGlu-γGlu-C18 diacid])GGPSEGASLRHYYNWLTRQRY-NH2 (also: TFA salt) [Compound 299]
1

Please determine if Y[Aib]EGTFTSDYSI[Aib]LEKQAQ[Aib]AFVEWLIK([εLys-γGlu-γGlu-γGlu-γGlu-γGlu-C18 diacid])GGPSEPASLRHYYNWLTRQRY-NH2 (also: TFA salt) [Compound 263] is below 6 nM in terms of EC50 hGLP1R 100% hP (CreLuc).
1

hey, is EC50 hGLP1R 100% hP (CreLuc) for Y[Aib]EGTFTSDYSI[Aib]LEKQAE[Aib]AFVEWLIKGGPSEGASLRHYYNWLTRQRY-NH2 (not fully specified (residue 28); also: TFA salt) [Compound 278] lower than 6 nM or not?
-1

API: query returns whether the binder falls strictly under 6 nM in EC50 hGLP1R 100% hP (CreLuc). Query: Y[Aib]EGTFTSDYSI[Aib]LEKQAQ[Aib]AFVQWLIK([AEEA-AEEA-γGlu-γGlu-γGlu-γGlu-C20 diacid])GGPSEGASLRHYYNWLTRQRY-NH2 (also: TFA salt) [Compound 269]
1
